Reference for the values: patent US9649295B2

Target: catalytic portion of the sAC-like adenylyl cyclase from Candida albicans (fragment JR3) (Candida albicans)
Sequence (A0A1D8PR83 entry or part of it): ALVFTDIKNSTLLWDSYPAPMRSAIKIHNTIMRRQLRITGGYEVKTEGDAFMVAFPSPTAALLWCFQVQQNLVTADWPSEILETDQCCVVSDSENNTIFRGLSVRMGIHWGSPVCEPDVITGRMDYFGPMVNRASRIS
pIC50: −log10 of the molar value.
quantityName: pIC50

{"columns": ["molecule", "quantityName", "assayResult"],
 "data": [
  ["CC(Sc1nc2ccccc2[nH]1)C(=O)N/N=C/c1cc(Br)ccc1O (stereo not shown) [KH7]", "pIC50", "~4.64"]
]}

---

Target: purified sperm isoform of sAC protein (pure sAC) (Homo sapiens, UniProt Q96PN6)
Construct: generated against human 48-kD isoform of sAC (sACt) antigen; made in house
Sequence (Q96PN6 1-469 limits assumed): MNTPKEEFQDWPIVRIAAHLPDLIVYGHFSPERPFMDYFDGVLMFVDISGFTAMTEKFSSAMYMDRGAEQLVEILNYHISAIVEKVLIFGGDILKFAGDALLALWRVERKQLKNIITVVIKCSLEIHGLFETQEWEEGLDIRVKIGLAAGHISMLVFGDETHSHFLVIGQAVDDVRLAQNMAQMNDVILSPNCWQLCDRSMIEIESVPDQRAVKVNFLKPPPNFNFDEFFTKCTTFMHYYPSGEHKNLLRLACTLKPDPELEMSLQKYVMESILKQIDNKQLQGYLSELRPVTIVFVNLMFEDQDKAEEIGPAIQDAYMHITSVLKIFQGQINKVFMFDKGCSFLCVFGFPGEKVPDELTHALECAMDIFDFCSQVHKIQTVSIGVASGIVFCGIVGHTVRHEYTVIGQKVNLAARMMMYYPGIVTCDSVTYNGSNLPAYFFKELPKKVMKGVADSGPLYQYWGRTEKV
Test: in vitro cyclase activity of purified sAC protein (Table 1)
Type: biochemical
Settings: unit inferred

{"columns": ["substanceSmiles", "IC50 [µM]"],
 "data": [
  ["CCn1c(SCC(=O)N/N=C/c2cc(Br)ccc2O)nc2ccccc21", 75],
  ["Cc1ccsc1/C=N/NC(=O)CSc1nc2ccccc2n1Cc1ccccc1", 80]
]}
